# System: PC-12
# Experiment notes: Antioxidant activity against H2O2-induced cell damage in rat PC12 cells assessed as cell viability at 5 uM after 24 hrs by MTT assay (reference value: 64.34 +/- 1.02 %)
# Type: functional
# Applied conditions: PC-12, 24 h, read-out: Activity
# maps each entry to its viability at 5 µM
Write the quantity with the unit trailing the number.

Example molecules with recorded viability at 5 µM:
C=C[C@]1(C)C[C@@H]2OC(=O)C(C)=C2C[C@H]1C(=C)C [ISOGERMAFURENOLIDE] = 63.7%
CC(C)C1=CC[C@@](C)(O)[C@@H]2CC[C@@](C)(O)[C@@H]2C1 = 77.9%
CC1=C2CC(=O)[C@@H](C)CC/C=C(\C)C[C@@]2(O)OC1=O = 76.1%
CC1(C)CCC[C@]2(C)[C@@H]1CC[C@](O)(CO)[C@H]2C/C=C1\CCOC1=O = 72.2%
CC(C)=C1C[C@H]2[C@@H](CC[C@]2(C)O)[C@](C)(O)CC1=O [ZEDOARONDIOL] = 70.3%
CC1=C2C[C@@]34O[C@]2(OC1=O)[C@H](O)[C@](C)(O)[C@@H]3CC[C@H]4C = 77.7%

INPUT: Fill in the blank: the reported viability at 5 µM of C=C1CC[C@H]2C(C)(C)[C@@H](O)CC[C@]2(C)[C@H]1C/C=C1\CCOC1=O is ____.
OUTPUT: 67.1%

INPUT: Also C=C(C)C(=O)C[C@@]12OC(=O)C=C(C)[C@@H]1CC[C@@H]2C , if possible.
OUTPUT: 72.4%

----------
# System: PC-12
# Experiment notes: Antioxidant activity against H2O2-induced cell damage in rat PC12 cells assessed as cell viability at 5 uM after 24 hrs by MTT assay (reference value: 64.34 +/- 1.02 %)
# Format: functional
# Applied conditions: PC-12, 24 h, read-out: Activity
Assay metric: viability at 5 µM (%)
Your answer should be a plain number; it is taken to be in %.

Cc1cc(=O)c(C(C)C)cc2c1CC[C@]2(C)O = 76.7
CC1=C2CC(=O)[C@@H](C)CC/C=C(\C)C[C@H]2OC1=O = 77.4

Let us examine a further case.
INPUT: GET /values?readout=viability at 5 µM&item= CC1=C2C[C@@H]3[C@](C)(CCC[C@@]3(C)O)C[C@]2(O)OC1=O
OUTPUT: 80.9
